Tested on: mouse macrophages
test protocol: stimulated release of TNF-α from mouse macrophages
Format: cell-based
condition info: Macrophage; Table 1, TNF-α release from mouse macrophages; read-out: EC50 (nM) (mouse)
quantity: EC50

O=C(N[C@H]1C[C@@H]1c1ccccc1)[C@@H]1CN(C(=O)C/C=C/CC(=O)N2C[C@@H](C(=O)N[C@H]3C[C@@H]3c3ccccc3)[C@H](C(=O)N[C@H]3C[C@@H]3c3ccccc3)C2)C[C@H]1C(=O)N[C@H]1C[C@@H]1c1ccccc1	> 5000 nM

Here is another compound to look at.
[ask] Give the measured EC50 of `O=C(N[C@H]1C[C@@H]1c1ccccc1)[C@@H]1CN(C(=O)[C@@H]2CCC[C@H](C(=O)N3C[C@@H](C(=O)N[C@H]4C[C@@H]4c4ccccc4)[C@H](C(=O)N[C@H]4C[C@@H]4c4ccccc4)C3)C2)C[C@H]1C(=O)N[C@H]1C[C@@H]1c1ccccc1` .
[reply] > 5000 nM
